Where these numbers come from: paper PMC7587356

biological target: SARS-CoV-2 3CLpro (Severe acute respiratory syndrome coronavirus 2); assay: biochemical; format: biochemical; parameters: unit not given here; details: sheet LOPAC_screen_w_protease; primary screen with protease, 5 µM; mean of two replicates
Provide the reported mean of each item.
Write the value as a bare number.

Return value of mean for input Cc1cccc(/C=C/c2ccccc2)n1 , no commentary.
0.4194

Return value of mean for input Cc1c(C)c2c(c(C)c1O)CCC(C)(CN1CCN(c3cc(N4CCCC4)nc(N4CCCC4)n3)CC1)O2.Cl.Cl (stereo not shown) [U-83836 dihydrochloride] , no commentary.
0.07046

Return value of mean for input C=CC[C@H](N)C(=O)O , no commentary.
0.3305

Return value of mean for input Cc1nc(N=Nc2ccc(S(=O)(=O)O)cc2S(=O)(=O)O)c(COP(=O)(O)O)c(C=O)c1O , no commentary.
0.05886

Return value of mean for input Br.CCCN(CCC)[C@@H]1CCc2cccc(O)c2C1 [R-(+)-8-Hydroxy-DPAT hydrobromide] , no commentary.
-0.6201

Return value of mean for input CC(C)(Sc1ccc(CCN(CCCCC2CCCCC2)C(=O)NC2CCCCC2)cc1)C(=O)O , no commentary.
-0.2447

Return value of mean for input Br.C[N+](C)(C)CCCCCNCC12CC3CC(CC(C3)C1)C2.[Br-] , no commentary.
0.3994

Return value of mean for input C=C(C)[C@H]1CC=C(C(=O)O)CC1 [(-)-Perillic acid] , no commentary.
-0.8057

Return value of mean for input CP(=O)(O)C1=CCNCC1 , no commentary.
0.264

Return value of mean for input O=c1ccn([C@@H]2O[C@H](COP(=O)([O-])OP(=O)([O-])O)[C@@H](O)[C@H]2O)c(=O)[nH]1.[Na+].[Na+] [Uridine 5'-diphosphate sodium] , no commentary.
-0.3913

Return value of mean for input O=C(O)Cc1c[nH]c2ccc(O)cc12 [5-Hydroxyindolacetic acid] , no commentary.
-0.3702

Return value of mean for input CCN(CC)CCCCCCCCOC(=O)c1cc(OC)c(OC)c(OC)c1.Cl [TMB-8 hydrochloride] , no commentary.
-0.545

Return value of mean for input Cl.Cl.NCCNS(=O)(=O)c1cccc2cnccc12 [H-9 dihydrochloride] , no commentary.
0.3892

Return value of mean for input Nc1nc(Nc2ccccc2)nc2c1ncn2[C@@H]1O[C@H](CO)[C@@H](O)[C@H]1O , no commentary.
-0.1756

Return value of mean for input Brc1ccc([C@H]2CN3CCSC3=N2)cc1.O=C(O)C(=O)O [S(-)-p-Bromotetramisole oxalate] , no commentary.
-0.07526

Return value of mean for input COc1ccc2c(c1)c(CC(=O)O)c(C)n2Cc1ccc(Cl)cc1 , no commentary.
0.3525

====

biological target: UniProtKB P0DTD1; assay: biochemical; format: biochemical; parameters: unit not given here; settings: sheet LOPAC_screen_w_protease; LOPAC1280 primary screen at 5 µM, with protease; mean of the two replicates
I'd appreciate it if you marked entries Criterion met when mean is lower than 0.6 and Criterion not met when it is not.

Here's an entry: CC(C)[C@H]1CN[C@H](C(=O)O)[C@H]1CC(=O)O [Dihydrokainic acid] . Is its mean below 0.6?
Criterion not met

Here's an entry: O=C(O)C1CCCNC1 (racemic) [(±)-Nipecotic acid] . Is its mean below 0.6?
Criterion met

Here's an entry: O=C(O)/C=C\C(=O)O.c1cnc(N2CCN(Cc3ccc4c(c3)OCO4)CC2)nc1 [Piribedil maleate] . Is its mean below 0.6?
Criterion met

Here's an entry: COC(=O)[C@H](NC(=O)c1cc(-c2ccccc2)nc2ccccc12)c1ccccc1 . Is its mean below 0.6?
Criterion not met
